Target: mTLR9ect (extracellular domain of murine TLR9 fused to human IgG1-Fc) (Mus musculus)
Construct: mTLR9ect (aa 1-816); made in house
Sequence (Q9EQU3 26-816): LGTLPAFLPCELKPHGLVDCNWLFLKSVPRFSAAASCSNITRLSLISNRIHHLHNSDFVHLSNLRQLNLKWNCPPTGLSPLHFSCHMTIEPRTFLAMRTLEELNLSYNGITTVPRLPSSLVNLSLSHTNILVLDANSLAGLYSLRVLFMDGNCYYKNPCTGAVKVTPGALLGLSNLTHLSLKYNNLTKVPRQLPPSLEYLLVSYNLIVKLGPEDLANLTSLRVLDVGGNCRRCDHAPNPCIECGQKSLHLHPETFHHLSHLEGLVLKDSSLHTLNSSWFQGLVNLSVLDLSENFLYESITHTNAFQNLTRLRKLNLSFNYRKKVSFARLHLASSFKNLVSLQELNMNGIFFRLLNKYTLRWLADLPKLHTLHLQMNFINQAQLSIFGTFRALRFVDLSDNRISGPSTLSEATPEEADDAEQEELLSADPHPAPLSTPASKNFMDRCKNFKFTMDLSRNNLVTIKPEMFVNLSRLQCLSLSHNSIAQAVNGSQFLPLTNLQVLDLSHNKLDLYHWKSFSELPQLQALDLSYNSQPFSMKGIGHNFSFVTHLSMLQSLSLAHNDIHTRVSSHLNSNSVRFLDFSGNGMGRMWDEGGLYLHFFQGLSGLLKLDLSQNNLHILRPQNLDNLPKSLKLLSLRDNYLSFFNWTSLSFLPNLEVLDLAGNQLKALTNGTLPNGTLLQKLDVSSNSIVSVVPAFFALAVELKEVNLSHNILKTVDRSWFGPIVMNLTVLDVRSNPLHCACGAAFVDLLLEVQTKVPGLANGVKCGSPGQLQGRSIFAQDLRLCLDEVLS
Assay: SPR biosensor analysis of mTLR9ect binding to immobilized CpG-DNA
Details: 1:1 binding model, four mTLR9ect concentrations 50 to 300 nM, running buffer pH 6.5, 25° C.; read-out: dissociation constant (Kd)
Experimental: Protein. […] SPR biosensor analysis. Real-time binding of TLR9 or TLR2 was measured by surface plasmon resonance biosensor technology using the BiaCore X system (Uppsala, Sweden). […] Binding was measured at 25° C. for 750 s (delay time 300 s). […] Sensorgrams were recorded and kinetic data were calculated by the BiaCore Evaluation program (Biacore, version 3.0.1). […]
PARAMETER_MEASURED: Kd (nM)

substance="5′-TCCATGACGTTCCTGATGCT-3′ (chemistry not given here) [CpG-DNA 1668, synthetic CpG oligodeoxynucleotide, TLR9 ligand]" system_tested="mTLR9ect (extracellular domain of murine TLR9 fused to human IgG1-Fc) (Mus musculus)" experimental_result=200
